Tested on: NCI-H460
METHOD_DESCRIPTION: Cytotoxicity against human NCI-H460 cells assessed as growth reduction under normoxic condition after 72 hrs by MTT assay
Assay type: functional, cell-based
CONDITION_PARAMETERS: NCI-H460, 72 h
Reported IC50 values are given for each entry in this list.

{"ITEM_SMILES": "CCc1c2c(nc3ccc(O)cc13)-c1cc3c(c(=O)n1C2)COC(=O)[C@@]3(CC)OC(=O)OCCn1ccnc1[N+](=O)[O-]", "IC50 / nM": 91}
{"ITEM_SMILES": "CC(=O)O[C@H]1C(=O)[C@@]2(C)[C@H]([C@H](OC(=O)c3ccccc3)[C@]3(O)C[C@H](OC(=O)[C@H](OC(=O)OCCn4ccnc4[N+](=O)[O-])[C@@H](NC(=O)c4ccccc4)c4ccccc4)C(C)=C1C3(C)C)[C@]1(OC(C)=O)CO[C@@H]1C[C@@H]2O", "IC50 / nM": 9}
{"ITEM_SMILES": "CCc1c2c(nc3ccc(O)cc13)-c1cc3c(c(=O)n1C2)COC(=O)[C@@]3(CC)OC(=O)OCCCn1ccnc1[N+](=O)[O-]", "IC50 / nM": 201}
{"ITEM_SMILES": "CC(=O)O[C@H]1C(=O)[C@@]2(C)[C@H]([C@H](OC(=O)c3ccccc3)[C@]3(O)C[C@H](OC(=O)[C@H](OC(=O)OCCCn4ccnc4[N+](=O)[O-])[C@@H](NC(=O)c4ccccc4)c4ccccc4)C(C)=C1C3(C)C)[C@]1(OC(C)=O)CO[C@@H]1C[C@@H]2O", "IC50 / nM": 21}

###

METHOD_DESCRIPTION: Half life in PBS buffer at 10 uM at pH 7.4 by HPLC method
Type: physicochemical
Each entry below carries its recorded half-life at 10 µM.
MEASURED_ENDPOINT: half-life at 10 µM (h)

{"ITEM_SMILES": "CC(=O)O[C@H]1C(=O)[C@@]2(C)[C@H]([C@H](OC(=O)c3ccccc3)[C@]3(O)C[C@H](OC(=O)[C@H](OC(=O)OCCCn4ccnc4[N+](=O)[O-])[C@@H](NC(=O)c4ccccc4)c4ccccc4)C(C)=C1C3(C)C)[C@]1(OC(C)=O)CO[C@@H]1C[C@@H]2O", "MEASURED_ENDPOINT": "half-life at 10 µM", "UNIT": "h", "BOUND_TYPE": "=", "VALUE_OBSERVED": 36}
{"ITEM_SMILES": "CCc1c2c(nc3ccc(O)cc13)-c1cc3c(c(=O)n1C2)COC(=O)[C@@]3(CC)OC(=O)OCCn1ccnc1[N+](=O)[O-]", "MEASURED_ENDPOINT": "half-life at 10 µM", "UNIT": "h", "BOUND_TYPE": ">", "VALUE_OBSERVED": 48}
{"ITEM_SMILES": "CCc1c2c(nc3ccc(O)cc13)-c1cc3c(c(=O)n1C2)COC(=O)[C@@]3(CC)OC(=O)OCCCn1ccnc1[N+](=O)[O-]", "MEASURED_ENDPOINT": "half-life at 10 µM", "UNIT": "h", "BOUND_TYPE": ">", "VALUE_OBSERVED": 48}
{"ITEM_SMILES": "CC(=O)O[C@H]1C(=O)[C@@]2(C)[C@H]([C@H](OC(=O)c3ccccc3)[C@]3(O)C[C@H](OC(=O)[C@H](OC(=O)OCCn4ccnc4[N+](=O)[O-])[C@@H](NC(=O)c4ccccc4)c4ccccc4)C(C)=C1C3(C)C)[C@]1(OC(C)=O)CO[C@@H]1C[C@@H]2O", "MEASURED_ENDPOINT": "half-life at 10 µM", "UNIT": "h", "BOUND_TYPE": "=", "VALUE_OBSERVED": 28}
